This collection of values is drawn from ChEMBL document CHEMBL3853263.

test: Binding affinity to HIV1 wild type [32P]-labeled RRE-2B RNA after 4 hrs by electrophoretic mobility shift assay; set-up: species or system Human immunodeficiency virus 1
Side chains are listed from the residue outwards. Peptide text beside a SMILES is read from it. * marks the point of attachment. Benzoyl(4-B(OH)2) = O=C(c1ccc(B(O)O)cc1)*
outcome-measure: pKd
Friendly reminder that pKd comes from taking -log10 of the concentration in mol/L.

What value of pKd has been reported for the following molecule? CC(C)C[C@H](NC(=O)[C@H](CCCCNC(=O)[C@H](CCCCN)NC(=O)[C@H](CC(C)C)NC(=O)[C@@H](N)CCCCN)NC(=O)[C@H](CCCCN)NC(=O)[C@H](CC(C)C)NC(=O)[C@@H](N)CCCCN)C(=O)N[C@@H](CCCCN)C(=O)N[C@@H](CCCCNC(=O)c1ccc(B(O)O)cc1)C(=O)N[C@@H](Cc1ccc(O)cc1)C(N)=O (H-KLKK([Lys-Leu-Lys])LKK(Benzoyl(4-B(OH)2))Y-NH2)
6.52
